- systemUnderTest: O75970
- assayText: holdup assay
- Set-up: key: below the threshold = too weak to quantify, mostly under pKd 3.1 to 4
- testConditions: plain residues with an end cap or a label only (N-terminal biotin on a linker: ttds)
recordedMetric: pKd

Worked set:
{"columns": ["binder", "recordedMetric", "measValue"],
 "data": [
  ["SHSSKGETAV [FZD7, O75084]", "pKd", "below the threshold"],
  ["SSIDLWETAL [SLC15A5, A6NIM6]", "pKd", "below the threshold"],
  ["PSRDRKETSI [RALBP1, Q15311]", "pKd", "below the threshold"],
  ["KLVIKTETTV [RASSF6, Q6ZTQ3]", "pKd", "below the threshold"]
]}

Continue with the next binder.
q: Using the record for PPRQRSETQV [HPV82-E6, Q9IR59] , report its pKd.
a: below the threshold
